molecular target: KRas wild type (Homo sapiens, UniProt P01116); experiment: Ras GTP binding domain inhibition assay (labeled-GTP competition, cell-free); parameters: made in house; details: without SOS, read-out: KRas wild type: % inh.
endpoint-name: inhibition at 20 µM

| compound | endpoint-name | observed-result |
| --- | --- | --- |
| CO[C@H]1CC[C@@H](Nc2nc(-c3nccn3C)nc3sc(-c4ccn(C(C)C)n4)c(-c4ccccc4)c23)C1 | inhibition at 20 µM | 51 to 75% |
| CO[C@H]1CC(Nc2nc(-c3nccn3C)nc3sc(-c4ccn(C(C)C)n4)c(C)c23)C[C@@H]1OC (racemic) | inhibition at 20 µM | 76 to 100% |
| Oc1nc(-c2ccc3[nH]ncc3n2)nc2c(-c3ccccn3)csc12 | inhibition at 20 µM | 26 to 50% |
| CO[C@@H]1CC[C@H](Nc2nc(-c3nccn3C)nc3sc(-c4ccn(C(C)C)n4)c(C)c23)C1 | inhibition at 20 µM | 26 to 50% |
| CO[C@H]1CC[C@@H](Nc2nc(-c3nccn3C)nc3sccc23)C1 (racemic) | inhibition at 20 µM | 51 to 75% |

Parameter requested: inhibition at 20 µM. Apply to each item below.
1. Cn1ccnc1-c1nc(O)c2scc(-c3ncccc3F)c2n1
2. CO[C@H]1CC[C@H](Nc2nc(-c3nccn3C)nc3sc(-c4ccn(C(C)C)n4)c(C)c23)CC1
3. CO[C@H]1C[C@@H](CNc2nc(-c3nccn3C)nc3sc(-c4ccn(C(C)C)n4)c(C)c23)C1
4. CO[C@H]1CC[C@@H](Nc2nc(C(=O)Nc3ccccn3)nc3sccc23)C1 (racemic)

1. 76 to 100%
2. 76 to 100%
3. 76 to 100%
4. 1 to 25%

Parameter requested: inhibition at 20 µM. Apply to each item below.
1. COC1CCCN(c2nc(-c3ccccn3)nc3sc(-c4ccn(C(C)C)n4)c(C)c23)C1 (racemic)
2. CO[C@H]1CC[C@@H](Nc2nc(C(=O)Nc3ccccc3)nc3sccc23)C1 (racemic)
3. Oc1nc(-c2nccn2CCOCC(F)(F)F)nc2c(-c3ccccn3)csc12
4. COCCNC(=O)c1nc(N[C@@H]2CC[C@H](OC)C2)c2ccsc2n1 (racemic)

1. 26 to 50%
2. 1 to 25%
3. 76 to 100%
4. 0%

Parameter requested: inhibition at 20 µM. Apply to each item below.
1. CO[C@H]1CC[C@@H](Nc2nc(-c3nccn3C)nc3sc(-c4ccn(C(C)C)n4)c(C)c23)CC1
2. CO[C@H]1CC[C@@H](Nc2nc(C(N)=O)nc3sc(-c4ccn(C(C)C)n4)cc23)C1 (racemic)
3. Oc1nc(-c2ccncn2)nc2c(-c3ccccn3)csc12
4. CC(C)OCCn1ccnc1-c1nc(O)c2scc(-c3ccccn3)c2n1
5. CO[C@H]1C[C@H](Nc2nc(-c3nccn3C)nc3sc(-c4ccn(C(C)C)n4)c(C)c23)C[C@H]1OC
6. CO[C@@H]1CC[C@H]1CNc1nc(-c2nccn2C)nc2sc(-c3ccn(C(C)C)n3)c(C)c12 (racemic)
7. Oc1nc(-c2nccn2CCOCc2ccccc2)nc2c(-c3ccccn3)csc12

["1 to 25%", "1 to 25%", "26 to 50%", "51 to 75%", "26 to 50%", "76 to 100%", "51 to 75%"]

Parameter requested: inhibition at 20 µM. Apply to each item below.
1. O=C(c1nc(O)c2scc(-c3ccccn3)c2n1)N1CCOCC1
2. Cc1c(-c2ccn(C(C)C)n2)sc2nc(-c3nccn3C)nc(NCCc3nnn[nH]3)c12

1. 1 to 25%
2. 76 to 100%

Parameter requested: inhibition at 20 µM. Apply to each item below.
1. CO[C@H]1CN(c2nc(-c3nccn3C)nc3sc(-c4ccn(C(C)C)n4)c(C)c23)C[C@H]1OC
2. Oc1nc(-c2ccccn2)nc2c(-c3ncccc3F)csc12
3. COC1CCCN(c2nc(-c3nccn3C)nc3sc(-c4ccn(C(C)C)n4)c(-c4ccccc4)c23)C1 (racemic)
4. COc1cc(Nc2nc(-c3nccn3C)nc3sc(-c4ccn(C(C)C)n4)c(C)c23)ccn1
5. COc1ccn2c(-c3nc(O)c4scc(-c5ccccn5)c4n3)ncc2c1
6. CO[C@H]1CC[C@@H](Nc2nc(-c3ccccn3)nc3sc(-c4ccn(C(C)C)n4)c(C)c23)C1 (racemic)
7. COC1CCN(c2nc(-c3nccn3C)nc3sc(-c4ccn(C(C)C)n4)c(C)c23)C1 (racemic)

1: 76 to 100%; 2: 76 to 100%; 3: 26 to 50%; 4: 26 to 50%; 5: 51 to 75%; 6: 51 to 75%; 7: 76 to 100%

Parameter requested: inhibition at 20 µM. Apply to each item below.
1. COCC1CCN(c2nc(-c3ccccn3)nc3sc(-c4ccn(C(C)C)n4)c(C)c23)C1 (racemic)
2. COCC1CCN(c2nc(-c3nccn3C)nc3sc(-c4ccn(C(C)C)n4)c(C)c23)C1 (racemic)

1: 26 to 50%; 2: 76 to 100%

---

target: UniProt:P01116; assay: Ras GTP binding domain inhibition assay (labeled-GTP competition, cell-free); parameters: made in house; details: with SOS, read-out: KRas wild type + SOS: % inh.
For each of the compounds below, state its inhibition at 20 µM.

Before answering, review these 5 worked examples.
| compound | inhibition at 20 µM |
| --- | --- |
| O=C(Nc1ccccc1)c1nc(O)c2scc(-c3ccccn3)c2n1 [Compound 23] | 1 to 25% |
| O=C(c1nc(O)c2scc(-c3ccccn3)c2n1)N1CCCC1 [Compound 19] | 1 to 25% |
| COc1nc(-c2nccn2C)nc2c(-c3ncccc3F)csc12 [Compound 95] | 76 to 100% |
| COc1cccc(Nc2nc(-c3nccn3C)nc3sc(-c4ccn(C(C)C)n4)c(C)c23)c1 [Compound 64] | 76 to 100% |
| Cc1c(-c2ccn(C(C)C)n2)sc2nc(-c3nccn3C)nc(NC3CCOC3)c12 (racemic) [Compound 37] | 76 to 100% |

Parameter requested: inhibition at 20 µM. Apply to each item below.
1. CC(C)OCCn1ccnc1-c1nc(O)c2scc(-c3ccccn3)c2n1 [Compound 82]
2. CC(C)NC(=O)c1nc(O)c2scc(-c3ccccn3)c2n1 [Compound 20]
3. CO[C@@H]1CC[C@H](Nc2nc(-c3nccn3C)nc3sc(-c4ccn(C(C)C)n4)c(-c4ccccc4)c23)C1 [Example 4]
4. O=C(c1nc(O)c2scc(-c3ccccn3)c2n1)N1CCOCC1 [Compound 22]

1. 51 to 75%
2. 1 to 25%
3. 76 to 100%
4. 1 to 25%

---

For each of the compounds below, state its inhibition at 20 µM.
target: KRas G12D mutant (Homo sapiens, UniProt P01116, G12D); construct: made in house; assay: Ras GTP binding domain inhibition assay (labeled-GTP competition, cell-free); details: without SOS, read-out: KRas G12D mutant: % inh.

Parameter requested: inhibition at 20 µM. Apply to each item below.
1. CO[C@H]1C[C@@H](CNc2nc(-c3nccn3C)nc3sc(-c4ccn(C(C)C)n4)c(C)c23)C1 [Compound 47]
2. CCOCCn1ccnc1-c1nc(O)c2scc(-c3ccccn3)c2n1 [Compound 80]
3. COCCn1ccnc1-c1nc(O)c2scc(-c3ccncc3)c2n1 [Compound 94]
4. CO[C@H]1C[C@@H](Nc2nc(-c3nccn3C)nc3sc(-c4ccn(C(C)C)n4)c(C)c23)C1 [Compound 96]
5. COCC1CCN(c2nc(-c3ccccn3)nc3sc(-c4ccn(C(C)C)n4)c(C)c23)C1 (racemic) [Compound 71]
6. Cc1c(-c2ccn(C(C)C)n2)sc2nc(-c3nccn3C)nc(NCCc3nnn[nH]3)c12 [Compound 46]
7. Cc1c(-c2ccn(C(C)C)n2)sc2nc(-c3nccn3C)nc(NC[C@H]3CCC(=O)N3)c12 [Compound 52]
8. Cc1cnc(-c2nc(O)c3scc(-c4ccccn4)c3n2)s1 [Compound 92]

51 to 75%
76 to 100%
76 to 100%
0%
0%
26 to 50%
51 to 75%
76 to 100%

---

tested on: Akt phosphorylation in Panc-1 cells; experiment: Western AKT cell-based phosphorylation assay; design: species or system human; details: at 10 μM, values in brackets < > are activation %, not inhibition
endpoint-name: % inh of AKT phosphorylation in PANC-1

| molecule | % inh of AKT phosphorylation in PANC-1 |
| --- | --- |
| COC1CCCN(c2nc(-c3ccccn3)nc3sc(-c4ccn(C(C)C)n4)c(C)c23)C1 (racemic) | 0 (0% inhibition) |
| COCC1CCN(c2nc(-c3nccn3C)nc3sc(-c4ccn(C(C)C)n4)c(C(F)(F)F)c23)C1 (racemic) | 0 (0% inhibition) |
| CO[C@H]1C[C@@H](Nc2nc(-c3nccn3C)nc3sc(-c4ccn(C(C)C)n4)c(C)c23)C[C@H]1OC | <D> |
| Oc1nc(-c2ccncn2)nc2c(-c3ccccn3)csc12 | <B> |

Parameter requested: % inh of AKT phosphorylation in PANC-1. Apply to each item below.
1. Cc1c(-c2ccn(C(C)C)n2)sc2nc(-c3nccn3C)nc(NC3CCOC3)c12 (racemic)
2. COCCNc1nc(-c2nccn2C)nc2sc(-c3ccn(C(C)C)n3)c(C)c12

0 (0% inhibition)
0 (0% inhibition)

Parameter requested: % inh of AKT phosphorylation in PANC-1. Apply to each item below.
1. COc1cc(Nc2nc(-c3nccn3C)nc3sc(-c4ccn(C(C)C)n4)c(C)c23)ncn1
2. CC(C)OCCn1ccnc1-c1nc(O)c2scc(-c3ccccn3)c2n1
3. COCC1CCN(c2nc(-c3nccn3C)nc3sc(-c4ccn(C(C)C)n4)c(C)c23)C1 (racemic)
4. CO[C@H]1CC[C@@H](Nc2nc(C(=O)N3CCOCC3)nc3sccc23)C1 (racemic)
5. Cc1c(-c2ccn(C(C)C)n2)sc2nc(-c3nccn3C)nc(NCCc3cn(C)cn3)c12
6. Cc1c(-c2ccn(C(C)C)n2)sc2nc(-c3nccn3C)nc(NCc3c[nH]cn3)c12
7. Cn1ccc(-c2nc(O)c3scc(-c4ccccn4)c3n2)n1

1: B (26-50% inhibition); 2: <D>; 3: B (26-50% inhibition); 4: 0 (0% inhibition); 5: 0 (0% inhibition); 6: 0 (0% inhibition); 7: 0 (0% inhibition)

Parameter requested: % inh of AKT phosphorylation in PANC-1. Apply to each item below.
1. CO[C@H]1CC[C@@H](Nc2nc(C(N)=O)nc3sccc23)C1 (racemic)
2. COc1ccn2c(-c3nc(O)c4scc(-c5ccccn5)c4n3)ncc2c1
3. COCCCNc1nc(-c2nccn2C)nc2sc(-c3ccn(C(C)C)n3)c(C)c12

1. 0 (0% inhibition)
2. 0 (0% inhibition)
3. 0 (0% inhibition)
